Target: KRas G12R (Homo sapiens, UniProt P01116, G12R);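 note: TR-FRET displacement assay of compound binding to KRas, read after one hour at room temperature, potency from a four-parameter fit of percent-of-control values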
Sequence (P01116 1-169 isoform P01116-2 G12R): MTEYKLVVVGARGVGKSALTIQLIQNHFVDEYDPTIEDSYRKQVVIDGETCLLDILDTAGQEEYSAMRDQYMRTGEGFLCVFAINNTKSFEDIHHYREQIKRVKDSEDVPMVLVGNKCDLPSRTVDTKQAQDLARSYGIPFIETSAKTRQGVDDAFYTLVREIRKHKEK
Test: biochemical
I'd appreciate it if you could supply log10(IC50) values for the items below.
Hey, these are logged values: log10 of IC50, nM being the unit before logging.

# input Which value of log10(IC50) has been reported for CCc1cccc2cccc(-c3ncc4c(N5CCCC6(CNC(=O)C6)C5)nc(OCC56CCCN5CCC6)nc4c3F)c12 (stereo not shown) [Example 286] in the records?
# output 2.83

The following compounds each have a reported value; give each one's log10(IC50).
1. OC1CCCCN(c2nc(OCC34CCCN3CCC4)nc3c(F)c(-c4cccc5cccc(F)c45)ncc23)C1 (stereo not shown) [Example 44]
2. Fc1c(-c2cccc3cccc(F)c23)ncc2c(N3CCCC4(CC4)C3)nc(OCC34CCCN3CCC4)nc12 [Example 114]

# output
3.80
3.57

====

System: pERK in MKN1 cells
Experiment: Inhibition of KRas phosphorylation of ERK (Cisbio HTRF pERK assay)
Conditions: Homo sapiens, MKN-1, 3 h, read-out: Inhibition (HTRF IC50) of KRas-mediated Phosphorylation of ERK, MKN1
Mark condition met for IC50 under 7 nM, condition not met if at or over.

# input # check: IC50 < 7 nM for Oc1cc(-c2ncc3c(N4CC5CC(O)C(C5)C4)nc(OC[C@@]45CCCN4C[C@H](F)C5)nc3c2F)c2c(Cl)c(F)ccc2c1 (stereo partly drawn)
# output condition met

# input Another compound to look at: CCc1c(F)ccc2cc(O)cc(-c3ncc4c(N5CCCC6(C5)NC(=O)NC6=O)nc(OC[C@@]56CCCN5C[C@H](F)C6)nc4c3F)c12 (stereo partly drawn)
# output condition not met

# input Query "CCc1c(F)ccc2cc(O)cc(-c3ncc4c(N5C[C@@H](C)C[C@@H](O)C5)nc(OC[C@@]56CCCN5C[C@H](F)C6)nc4c3F)c12" next
# output condition not met

Please look at the following compound next.
# input For this compound, is IC50 lower than 7 nM? "CCc1c(F)ccc2cc(O)cc(-c3ncc4c(N5CCOC[C@@](C)(O)C5)nc(OCC5(CN(C)C)CC5)nc4c3F)c12"
# output condition met

====

Target: KRas G12C (Homo sapiens, UniProt P01116, G12C);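 note: binding to KRas assessed by TR-FRET displacement after one hour incubation at room temperature, potency fitted from percent-of-control values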
Sequence (P01116 1-169 isoform P01116-2 G12C): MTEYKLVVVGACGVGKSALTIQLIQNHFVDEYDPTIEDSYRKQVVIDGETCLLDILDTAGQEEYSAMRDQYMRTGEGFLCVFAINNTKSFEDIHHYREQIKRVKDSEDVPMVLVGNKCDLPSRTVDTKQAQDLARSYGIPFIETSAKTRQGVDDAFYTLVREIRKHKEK
Experiment: biochemical
Please use the following IC50 ranges when assigning a class: class A = under 900 nM, class B = from 900 nM up to 3000 nM, class C = 3000 nM and over

# input // bin(item) where item = Fc1c(-c2cccc3cccc(F)c23)ncc2c(NCc3nnc4ncccn34)nc(OCC34CCCN3CCC4)nc12 [Example 121]
# output class C

# input Next entry: CCc1cccc2cccc(-c3ncc4c(N5CCCC(c6nc[nH]n6)C5)nc(OCC56CCCN5CCC6)nc4c3F)c12 (stereo not shown) [Example 295]
# output class B

# input # repeat for Fc1c(-c2cccc3cccc(F)c23)ncc2c(NCCCn3ccnn3)nc(OCC34CCCN3CCC4)nc12 [Example 118]
# output class C

***
# input Kindly state the category for this compound: Fc1c(-c2cccc3cccc(F)c23)ncc2c(NCc3cnn4cccnc34)nc(OCC34CCCN3CCC4)nc12 [Example 214]
# output class C

# input And Cc1cc(N)nc(-c2ncc3c(N4CCCC(C)(O)C4)nc(OC[C@@]45CCCN4C[C@H](F)C5)nc3c2F)c1C(F)(F)F (stereo partly shown) [Example 459] ?
# output class A

# input Repeat with O=c1ccc(CNc2nc(OCC34CCCN3CCC4)nc3c(F)c(-c4cccc5cccc(F)c45)ncc23)c[nH]1 [Example 96]
# output class B

# input Again, but for Fc1c(-c2cccc3cccc(F)c23)ncc2c(Nc3ccc4[nH]ncc4c3)nc(OCC34CCCN3CCC4)nc12 [Example 100]
# output class C

====

Hi there, I'd appreciate the recorded IC50 for every entry that follows.
Molecular target: KRas G12D (Homo sapiens, UniProt P01116, G12D)
Sequence (P01116 1-169 isoform P01116-2 G12D): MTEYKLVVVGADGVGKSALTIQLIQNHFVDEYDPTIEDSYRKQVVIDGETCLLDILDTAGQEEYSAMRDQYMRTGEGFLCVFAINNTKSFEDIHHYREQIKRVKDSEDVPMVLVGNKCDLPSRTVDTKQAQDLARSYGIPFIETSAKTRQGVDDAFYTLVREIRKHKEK
Assay: biochemical

Solved entries:
# input Consider the compound "CCc1cccc2cc(O)c(F)c(-c3ncc4c(N5CCC[C@@](C)(O)C5)nc(OC[C@@]56CCCN5C[C@H](F)C6)nc4c3F)c12" and give its measured IC50.
# output 6 nM

# input What do we get for "OCc1n[nH]c(CNc2nc(OCC34CCCN3CCC4)nc3c(F)c(-c4cccc5cccc(Cl)c45)ncc23)n1" ?
# output 9050 nM

# input Try the compound C#Cc1c(F)ccc2cc(O)cc(-c3ncc4c(N5CC6CC(O)CC5C6)nc(OC[C@@]56CCCN5C[C@H](F)C6)nc4c3F)c12 (stereo partly shown)
# output ≤ 2 nM

# input Now consider CCc1cccc2cccc(-c3ncc4c(N5CCCC(CS(N)(=O)=O)C5)nc(OCC56CCCN5CCC6)nc4c3F)c12 (stereo not shown) .
# output 976 nM

# input Okay, and "CCc1c(F)ccc2cc(O)cc(-c3ncc4c(N5CCC[C@@H](O)[C@@H]5C)nc(OC[C@@]56CCCN5C[C@H](F)C6)nc4c3F)c12" ?
# output 11 nM

Give IC50 for each listed item.
1. CCc1c(F)ccc2cc(O)cc(-c3ncc4c(N5CCCC6(CC(=O)N6)C5)nc(OCC5(CN(C)C)CC5)nc4c3F)c12 (stereo not shown)
2. Oc1cc(-c2ncc3c(N4CC5CC(O)CC4C5)nc(OC[C@@]45CCCN4C[C@H](F)C5)nc3c2F)c2c(Br)c(F)ccc2c1 (stereo partly shown)
3. CCc1c(F)ccc2cc(O)cc(-c3ncc4c(N5CCC[C@]6(C5)NC(=O)NC6=O)nc(OCC5(CN6CCCC6)CC5)nc4c3F)c12

# output
≤ 2 nM
6 nM
≤ 2 nM

Parameter requested: IC50. Apply to each item below.
1. Oc1cc(-c2ncc3c(N4CC5CC(O)C(C5)C4)nc(OC[C@@]45CCCN4C[C@H](F)C5)nc3c2F)c2c(Br)c(F)ccc2c1 (stereo partly shown)
2. Fc1c(-c2cccc3cccc(F)c23)ncc2c(OCCCc3cccnc3)nc(OCC34CCCN3CCC4)nc12
3. NS(=O)(=O)NC1CCCN(c2nc(OCC34CCCN3CCC4)nc3c(F)c(-c4cccc5cccc(F)c45)ncc23)C1 (stereo not shown)

# output
["≤ 2 nM", "17300 nM", "1140 nM"]

# batch: return IC50 for each of the 4 compounds below
1. CCc1c(F)ccc2cc(O)cc(-c3ncc4c(N5CCCC(O)CC5)nc(OC[C@@]56CCCN5C[C@H](F)C6)nc4c3F)c12 (stereo in doubt)
2. Cc1cc2[nH]ncc2c(-c2ncc3c(N4CCC[C@@](C)(O)C4)nc(OCC4(CN(C)C)CC4)nc3c2F)c1C
3. CCc1c(F)ccc2cc(O)cc(-c3ncc4c(NC5CCS(=O)(=O)C5)nc(OC[C@@]56CCCN5C[C@H](F)C6)nc4c3F)c12 (stereo partly shown)
4. CCc1c(F)ccc2cc(O)cc(-c3ncc4c(N5CC6C(=O)NC(=O)C6C5)nc(OC[C@@]56CCCN5C[C@H](F)C6)nc4c3F)c12 (stereo partly shown)

# output
1: ≤ 2 nM; 2: 692 nM; 3: 20 nM; 4: ≤ 2 nM

For each listed entry, give its IC50.
1. CCc1c(F)ccc2cc(O)cc(-c3ncc4c(N5CCCC(O)(C(F)F)C5)nc(OC[C@@]56CCCN5C[C@H](F)C6)nc4c3F)c12 (stereo partly shown)
2. Cc1ccc(O)cc1-c1ncc2c(N3CCCC(C)(O)C3)nc(OCC34CCCN3CCC4)nc2c1F (stereo not shown)
3. O=C1CC2(CCCN(c3nc(OC[C@@]45CCCN4C[C@H](F)C5)nc4c(F)c(-c5cc(O)cc6ccc(F)c(Br)c56)ncc34)C2)N1 (stereo partly shown)
4. C#Cc1c(F)ccc2cc(O)cc(-c3ncc4c(N5CCCC6(CNC(=O)N6)C5)nc(OC[C@@]56CCCN5C[C@H](F)C6)nc4c3F)c12 (stereo partly shown)
5. Fc1c(-c2cccc3cccc(Cl)c23)ncc2c(N3CCCC3c3cn[nH]c3)nc(OCC34CCCN3CCC4)nc12 (stereo not shown)
6. CCc1c(F)ccc2cc(O)cc(-c3ncc4c(N5CCC[C@@](C)(O)C5)nc(OC[C@@]56CCCN5[C@@H](COC(=O)N(C)C)CC6)nc4c3F)c12
7. CC1(O)CCCN(c2nc(OCC3(CN4CCCC4)CC3)nc3c(F)c(-c4cccc5cccc(F)c45)ncc23)C1 (stereo not shown)
8. O=C1CC(CNc2nc(OCC34CCCN3CCC4)nc3c(F)c(-c4cccc5cccc(F)c45)ncc23)CN1 (stereo not shown)

# output
1. ≤ 2 nM
2. 1140 nM
3. ≤ 2 nM
4. ≤ 2 nM
5. 7610 nM
6. 5 nM
7. 2430 nM
8. 20500 nM

Go through the items and report each one's IC50.
1. C#Cc1c(F)ccc2cc(O)cc(-c3ncc4c(N5CCCC6(CC(O)C6)C5)nc(OC[C@@]56CCCN5C[C@H](F)C6)nc4c3F)c12 (stereo partly shown)
2. CCc1c(F)ccc2cc(O)cc(-c3ncc4c(N5CCN6C(=O)NCC6C5)nc(OC[C@@]56CCCN5C[C@H](F)C6)nc4c3F)c12 (stereo partly shown)

# output
["≤ 2 nM", "275 nM"]
